Biological target: saCodY (Staphylococcus aureus, UniProt A7X1N2, H70A/K158A/K47A/R45A/S43A)
Assay: biochemical

smiles notation | Kd [mM]
Nc1nc2c(ncn2[C@@H]2O[C@H](COP(=O)(O)OP(=O)(O)OP(=O)(O)O)[C@@H](O)[C@H]2O)c(=O)[nH]1 | 35

Data provenance is paper PMC5100569.
